Sourced from ChEMBL document CHEMBL3045723

System: Candida albicans
Experiment: Antifungal activity against Candida albicans MTCC 183 after 48 hr
Format: functional
Settings: MTCC 183, 48 h
measured-quantity: MIC (µg/mL)
Write it as a number; the unit µg/mL goes unstated.

[Q] Which MIC value is on record for O=c1oc2ccccc2cc1-c1nnc(Sc2nc(Oc3cccc4cccnc34)nc(N3CCOCC3)n2)o1 ?
[A] 100

[Q] Which MIC value is on record for O=c1oc2ccccc2cc1-c1nnc(Sc2nc(Oc3cccc4cccnc34)nc(N3CCN(c4ccc(F)cc4)CC3)n2)o1 ?
[A] 50

[Q] Which MIC value is on record for CC(C)N1CCN(c2nc(Oc3cccc4cccnc34)nc(Sc3nnc(-c4cc5ccccc5oc4=O)o3)n2)CC1 ?
[A] 100

[Q] Which MIC value is on record for O=c1oc2ccccc2cc1-c1nnc(Sc2nc(Oc3cccc4cccnc34)nc(N3CCC(Cc4ccccc4)CC3)n2)o1 ?
[A] 100

[Q] Which MIC value is on record for CC1CC(C)CN(c2nc(Oc3cccc4cccnc34)nc(Sc3nnc(-c4cc5ccccc5oc4=O)o3)n2)C1 (stereo not drawn) ?
[A] 100

[Q] Which MIC value is on record for O=c1oc2ccccc2cc1-c1nnc(Sc2nc(Oc3cccc4cccnc34)nc(N3CCN(c4ccccc4F)CC3)n2)o1 ?
[A] 100

[Q] Which MIC value is on record for COc1ccc(N2CCN(c3nc(Oc4cccc5cccnc45)nc(Sc4nnc(-c5cc6ccccc6oc5=O)o4)n3)CC2)cc1 ?
[A] 50

[Q] Which MIC value is on record for CC(=O)N1CCN(c2ccc(OCC3COC(Cn4ccnc4)(c4ccc(Cl)cc4Cl)O3)cc2)CC1 (stereo not drawn) ?
[A] 1.56
